The reported numbers originate from patent US11236084B2.

- System: P-IKKα levels in L363 (NIK translocated multiple myeloma) cells
- assay-comment: Biological Assay C: effect of compounds on P-IKKα levels in L363 (NIK translocated multiple myeloma) cells, performed at 2 locations
- Type: cell-based, human
- applied-conditions: location 2; L363 cells, P-IKKα levels; averaged values; read-out: Assay C location 2 IC50
pIC50: −log10 of the molar value.
measured-endpoint: pIC50

P. COC1CCN(C(=O)c2ccc(Nc3nccc(-c4cnc5c(c4)C(C)(CO)CN5)n3)c(C)c2)CC1 (centres unmarked) [Compound 121]
Q. COC1CCN(C(=O)c2ccc(Nc3nccc(-c4cnc5c(c4)C(C)(CO)CN5)n3)c(C)c2)CC1 (centres unmarked) [Compound 133]
Lower pIC50: P or Q ? Give the label under which the chosen entry appears. P
(P: 6.42, Q: 6.89)

----------
- target-desc: recombinant human NF-kappaB-inducing kinase (NIK/MAP3K14) (Homo sapiens, UniProt Q99558)
- Sequence (Q99558 whole entry): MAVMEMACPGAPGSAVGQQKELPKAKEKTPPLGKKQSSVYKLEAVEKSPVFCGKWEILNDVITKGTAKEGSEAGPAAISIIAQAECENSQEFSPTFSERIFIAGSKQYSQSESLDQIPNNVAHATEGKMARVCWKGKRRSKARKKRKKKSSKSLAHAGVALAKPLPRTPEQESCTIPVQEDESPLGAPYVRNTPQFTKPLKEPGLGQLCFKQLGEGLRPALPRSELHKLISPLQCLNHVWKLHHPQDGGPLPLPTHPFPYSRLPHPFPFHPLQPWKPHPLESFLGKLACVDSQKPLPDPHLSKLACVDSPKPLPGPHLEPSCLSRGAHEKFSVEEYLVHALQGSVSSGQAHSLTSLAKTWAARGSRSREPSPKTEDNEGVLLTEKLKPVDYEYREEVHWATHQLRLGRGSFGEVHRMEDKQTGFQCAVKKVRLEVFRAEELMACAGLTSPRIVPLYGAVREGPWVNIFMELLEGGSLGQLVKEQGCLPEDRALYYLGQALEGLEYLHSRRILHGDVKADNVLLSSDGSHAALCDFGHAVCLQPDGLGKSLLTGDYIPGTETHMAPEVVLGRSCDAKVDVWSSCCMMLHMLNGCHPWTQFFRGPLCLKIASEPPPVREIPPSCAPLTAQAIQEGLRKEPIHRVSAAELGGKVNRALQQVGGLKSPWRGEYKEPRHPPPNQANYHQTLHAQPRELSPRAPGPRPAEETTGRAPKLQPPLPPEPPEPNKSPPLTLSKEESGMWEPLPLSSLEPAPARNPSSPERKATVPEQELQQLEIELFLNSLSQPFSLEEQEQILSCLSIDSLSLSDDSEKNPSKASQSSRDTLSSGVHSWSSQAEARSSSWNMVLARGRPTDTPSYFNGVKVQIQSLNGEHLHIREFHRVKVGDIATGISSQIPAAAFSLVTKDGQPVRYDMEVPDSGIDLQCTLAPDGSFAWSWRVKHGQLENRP
- assay-comment: Biological Assay B: inhibition of auto-phosphorylation of recombinant human NIK/MAP3K14 (AlphaScreen), performed at 2 locations
- Type: biochemical
- applied-conditions: location 1; AlphaScreen auto-phosphorylation; averaged values; read-out: Assay B location 1 IC50
measured-endpoint: IC50 (nM)

Observe how each entry below is paired with its result.
* CN(C)CCOc1cc(N2CCOCC2)c(Cl)cc1Nc1nccc(-c2cnc3c(c2)C(C)(CO)CN3)n1 (single isomer, unassigned) [Compound 272] | 151
* CN1CCC(Oc2ccccc2Nc2nccc(-c3cnc4c(c3)C(C)(CO)CN4)n2)CC1 (stereo not drawn) | 30.9

A. CC1(CO)CNc2ncc(-c3ccnc(Nc4cc(C#N)c(N5CCOCC5)cc4Cl)n3)cc21 (single isomer, unassigned) [Compound 259]
B. Cc1cc(N2CCOCC2)c(F)cc1Nc1nccc(-c2cnc3c(c2)C(C)(CO)CN3)n1 (stereo not drawn) [Compound 366]
C. CC1(CO)CNc2ncc(-c3ccnc(Nc4cc(C#N)c(N5CCOCC5)cc4Cl)n3)cc21 (single isomer, unassigned) [Compound 260]
D. COc1cc(N2CC3(CCOCC3)C2)c(F)cc1Nc1nccc(-c2cnc3c(c2)C(C)(CO)CN3)n1 (single isomer, unassigned) [Compound 7S]
List from greatest to least IC50. Please, when replying, give the labels in the order that was requested. C, B, D, A

----------
- target-desc: recombinant human NF-kappaB-inducing kinase (NIK/MAP3K14) (Homo sapiens, UniProt Q99558)
- assay-comment: Biological Assay A: inhibition of recombinant human NF-kappaB-inducing kinase (NIK/MAP3K14) activity (MBP phosphorylation, Mesoscale)
- applied-conditions: MSD MBP; averaged over all measurements on all batches; read-out: Assay A Biochemical (MSD MBP) IC50
pIC50: −log10 of the molar value.
measured-endpoint: pIC50

• CC(=O)NCc1ccc(Nc2nccc(-c3cnc4c(c3)C(C)(C)CN4)n2)c(C)c1 [Compound 44] = 7.70

P. COc1cc(C(=O)N2CCS(=O)(=O)CC2)ccc1Nc1nccc(-c2cnc3c(c2)C(C)(CO)CN3)n1 (stereo not drawn) [Compound 132]
Q. COc1cc(C(=O)NC2CCN(C)CC2)ccc1Nc1nccc(-c2cnc3c(c2)C(C)(CO)CN3)n1 (stereo not drawn) [Compound 130]
Consider entries P and Q . Which has the numerically lower pIC50? Pick one; state its label. Q
(Q: 7.99, P: 8.48)
